Could you please report measured MIC for K. Pneumoniae A-651 for the items listed next?
System: K. pneumoniae A-651
Experiment: Bacterial growth minimal inhibitory concentration (microdilution, cation-adjusted Mueller-Hinton Broth)
Assay type: cell-based
Reported Conditions: multiply-resistant strain (in particular quinolone-resistant)
Give bare numbers, in µg/mL.

I'm hoping you can list MIC for K. Pneumoniae A-651 for every compound here, please.
1. C[C@@](CCN1Cc2cc(C#CC#CC3(COC(=O)OCOP(=O)(O)O)CC3)cn2C1=O)(C(=O)NO)S(C)(=O)=O [Example 75]
2. C[C@H](O)c1ccc(C#Cc2cc3n(c2)C(=O)N(CC[C@](C)(C(=O)NO)S(C)(=O)=O)C3)cc1 [Example 14]
3. C[C@@](CCN1Cc2cc(C#CC#CC[C@]3(O)C[C@@H](CO)C3)cn2C1=O)(C(=O)NO)S(C)(=O)=O [Example 73]
4. C[C@@](CCN1Cc2cc(C#CC#C[C@@]3(F)C[C@@H]3CO)cn2C1=O)(C(=O)NO)S(C)(=O)=O (relative stereo) [Example 67]
5. C[C@@](CCN1Cc2cc(C#CC#CC3(CO)COC3)cn2C1=O)(C(=O)NO)S(C)(=O)=O [Example 57]
6. C[C@@](CCN1Cc2cc(C#CC#C[C@@H]3C[C@@H](O)[C@@H](O)C3)cn2C1=O)(C(=O)NO)S(C)(=O)=O [Example 33]

Solution:
1: 2; 2: 0.25; 3: 16; 4: 0.5; 5: 2; 6: 0.5

---

Test system: wild-type E. coli A-1261
Experiment: MIC against wild-type E. coli A-1261 with or without alkaline phosphatase or esterase
Type: cell-based
Reported Conditions: Escherichia coli; read-out: MIC for E. coli A-1261 In the presence of an esterase (10 i.U./mL)
Experimental Endpoint: MIC (µg/mL)
Numbers only, in µg/mL.

Smiles Code: CN(C)CC(=O)OCC1(C#CC#Cc2cc3n(c2)C(=O)N(CC[C@](C)(C(=O)NO)S(C)(=O)=O)C3)CC1.Cl
Experimental Endpoint: MIC
Value Observed: 0.5

Smiles Code: C[C@@](CCN1Cc2cc(C#CC#CC3(COP(=O)(O)O)CC3)cn2C1=O)(C(=O)NO)S(C)(=O)=O
Experimental Endpoint: MIC
Value Observed: 16

Smiles Code: C[C@@](CCN1Cc2cc(C#CC#CC3(NC(=O)OCOP(=O)(O)O)CC3)cn2C1=O)(C(=O)NO)S(C)(=O)=O
Experimental Endpoint: MIC
Value Observed: 4

Please look at the following compound next.
Problem: Item CN(C)CC(=O)OCC1(c2ccc(C#Cc3cc4n(c3)C(=O)N(CC[C@](C)(C(=O)NO)S(C)(=O)=O)C4)cc2)CC1.Cl has what recorded MIC?
Solution: 0.25
